Hello, the source for this data is the domain aggregation screens of Martell et al. (2025), in case you need it.

test: soluble fraction after stress (log2 fold change); higher = more stays soluble; pooled small domains, quantitative proteomics; details: stress: pH 4
Label rule, in plain words: soluble fraction (log2) of -0.6 and up is rule met, under -0.6 is rule not met.

{"columns": ["Record sequence", "Discrete label"],
 "data": [
  ["HMGGDFVEHLKDLASEAPVIRLVNTIIGRVIDLRASDIHLEPFDDGLHVRYRVDGVIHPGELVPPRLS", "rule met"],
  ["HMETFGEKDLDELIGRNVELITHDGKVREGLVDSVDRYNVSLVRYLDAGEVAMMVRRREVKAVRLK", "rule not met"],
  ["HMSSVHTMEVKSTTQIKVLDENKNLSSYYSMKNPVSFNYRLFFLNQDELKKLQEDLKTNNDIQSIDIKYA", "rule not met"],
  ["HMDEYFNPETVVHYLRELFDTYRENGGNPFEWFHSTFESVNLNPQNYRKDLITTIEKALIEWIEIFEKQ", "rule met"],
  ["HMDIYLDEVNRKILHLLSQGIKTRSLREYINLSMSAIEKRKKHMKELFLVEDGKDETLLNEARNKGF", "rule not met"],
  ["HMGTGSSAERITMLNSILERQIQAMEIQGNPDAPIVNIQKIYTTLQRIVETAGLKDVDQFFMNPLQGQKEM", "rule met"],
  ["HMAVDVNKATAAELDSIKGIGPAISAKILEEKKKGGNFKDWNDLVTRVSGVGEANAAKFSSEGLTVGGAS", "rule met"],
  ["HMGQTDTIIKTTTDLYYEMSTMSDDDKLVVAQTLRDVWMAVGRWSGKLSKKQREKVAEVKRVLGE", "rule met"]
]}

----------
experiment: soluble fraction after stress (log2 fold change); higher = more stays soluble; pooled small domains, quantitative proteomics; settings: stress: pH 4

{"columns": ["Record sequence", "soluble fraction (log2)"],
 "data": [
  ["HMEPVDYEALRKELMQKVMGLFTQSRDVGIQILSSFGAKKLSDVPDDKLVAFAASVDKALAG", 0.138],
  ["HMIEYYDDEELDVFKGRQSDNYTNKEIEQFAEVLHTMRQDEVKGWNRSLILRSINLPDSLKDEVIMLI", -2.53],
  ["HMNIKITKSKNSEHYSIIYNTKINGKRTSKIYENIGNFEKLKLRAGEQEPIEWLKNYVSELNKKQKEDT", 0.22],
  ["HMPDPHSEARNIVLNQLNFMPRSRKELETALAKRNIEADVAKIVLDRFEEIGMVDDAAYAEL", -1.2]
]}

----------
assay: soluble fraction after stress (log2 fold change); higher = more stays soluble; pooled small domains, quantitative proteomics; conditions: stress: pH 4
Readings of soluble fraction (log2) for the listed sequences

{"columns": ["Record sequence", "soluble fraction (log2)"],
 "data": [
  ["HMIDFDEQGNLWVHEMGPRHGDELNLIEKARNYGYPTVSQGDHYSGVKISNHEDIPIFKSPEKAWVPAISP", -0.373],
  ["HMFIKVEVPDLTGMTLTEVRKALEEKNLKMGDIRPAGQTSLVAKVINQSPQAKMVVDEYSEVSIQFEE", 0.166],
  ["HMEFDSLINYEVKKKETLFSISKKFKIEINDLLSFNTELKNNKLKKNSIIIIPLKKKIVESQNFEKQKIID", -0.719],
  ["HMHSQVFTDPDKAKNAVVKLGAPLVVKADGLALGKGVIIAQNPQAAKEAVASVGSSGISSISVT", 0.22],
  ["HMVEREYRLEVPPEAEGKRLDQFLVNQPVQLSRSQVQHLIQNGLVLVNAKTRRSSYRVHTGDIIEMQVPA", -0.088],
  ["HMSGHIPGIKIKGVIFFDKGSSSNHIIATTENNSNLKLRVGETVQGAVLKSIHPNHVIFFHHNQLIEVGIG", 0.0374],
  ["HMGSQELIQLGERIRQKRKDSHLTQETFAEKAGISVNTVSRIEGGQAAMSIEIFAKLVEILDADANELLG", -1.07],
  ["HMSELTKEIGKRIHDFRKSRGLNQEELARLIYKSKATLSKYEKGEIAIDLDTLKQLALALHVRMEQLLPPT", "≥ 0.43"]
]}
